Provide the reported pEC50 of each item.
System: MCF7
Assay: Antiproliferative activity against human MCF7 cells transfected with human sigma1 receptor after 48 hrs by MTT assay
Type: functional, cell-based
Settings: Homo sapiens, MCF7, 48 h
pEC50 field: float, defined as -log10 of concentration (mol/L).

Task: Entry COc1ccc2c(CCCCN3CCCCC3(C)C)cccc2c1 has what pEC50?
Result: 4.00

Task: I would be grateful if you could share the reported pEC50 for CN1CCN(CCc2ccc(Cl)c(Cl)c2)CC1 .
Result: 4.15

Task: Look up pEC50: COc1ccc2c(c1)CCCC2CCCCN1[C@H](C)CCC[C@@H]1C (stereo partly specified)
Result: 4.00

Task: Quick check: pEC50 of COc1ccc2c(c1)CCCC2CCCCN1CCCCC1(C)C (stereo unspecified) ?
Result: 4.00

Task: Give its pEC50 value. Item: COc1cccc2c1CCCC2CCCN1CCN(C2CCCCC2)CC1 (stereo unspecified)
Result: 4.51
